Target: UniProtKB P9WKD7
Experiment: Competitive inhibition of Mycobacterium tuberculosis RPIB using D-ribose-5-phosphate as substrate
Listing of recorded pIC50 by entry.
Quick note: pIC50 means taking -log10 of the concentration in moles per liter.

{"columns": ["Molecule", "pIC50"],
 "data": [
  ["CC(C(C(=O)O)C(=O)O)[C@@H](O)[C@@H](O)[C@@H](O)CCP(=O)(O)O (some centres not stated)", 3.70],
  ["O=C(O)C(C[C@H]1OC(O)[C@H](O)[C@@H]1O)C(=O)O (some centres not stated)", 3.09],
  ["O=S(=O)(O)CC[C@H]1OC(O)[C@H](O)[C@@H]1O (some centres not stated)", 3.62],
  ["CC(C(C(=O)O)C(=O)O)[C@@H](O)[C@@H](O)[C@@H](O)CCC(=O)O (some centres not stated)", 3.33],
  ["O=S(=O)(O)OC[C@H]1OC(O)[C@H](O)[C@@H]1O (some centres not stated)", 3.92]
]}

Please look at the following molecule next.
Q: If you can, please state the reported pIC50 value of O=C(O)[C@@H](O)[C@@H](O)[C@@H](O)COP(=O)(O)O (single isomer, unassigned) .
Ans: 4.68

###

Target: Ribose-5-phosphate isomerase B (Escherichia coli (strain K12), UniProt P37351)
Sequence (P37351 whole entry): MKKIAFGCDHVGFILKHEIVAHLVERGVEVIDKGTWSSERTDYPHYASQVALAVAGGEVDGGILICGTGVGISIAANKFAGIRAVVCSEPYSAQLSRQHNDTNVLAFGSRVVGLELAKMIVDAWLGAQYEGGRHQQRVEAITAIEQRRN
Assay: Competitive inhibition of Escherichia coli RPIB using D-ribose-5-phosphate as substrate by spectrophotometric analysis
Measured Quantity: IC50
Answer format: number, then unit.

Q: If you can, please state the reported IC50 value of O=C(O)[C@@H](O)[C@@H](O)[C@@H](O)COP(=O)(O)O (single isomer, unassigned) .
Ans: 1310 µM

###

Listing of recorded degraded at 24 h by entry.
Test: Stability in Tris-HCl buffer assessed as compound hydrolysis incubated for 24 hrs
Format: physicochemical
Conditions: read-out: Drug degradation
Numeric only. Scale: %

{"columns": ["Molecule", "degraded at 24 h, %"],
 "data": [
  ["O=P(O)(O)OC[C@H]1O[C@@H](O)[C@H](O)[C@@H]1O", 10]
]}

Please look at the following molecule next.
Q: If you can, please state the reported degraded at 24 h value of O=C(O)[C@@H](O)[C@@H](O)[C@@H](O)COP(=O)(O)O (single isomer, unassigned) .
Ans: 20

###

Target: Ribose-5-phosphate isomerase B (Mycobacterium tuberculosis, UniProt P9WKD7)
Sequence (P9WKD7 whole entry): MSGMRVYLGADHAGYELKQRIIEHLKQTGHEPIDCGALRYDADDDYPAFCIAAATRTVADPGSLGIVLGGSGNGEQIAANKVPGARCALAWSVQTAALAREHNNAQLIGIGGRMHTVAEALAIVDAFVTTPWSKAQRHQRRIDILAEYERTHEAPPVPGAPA
Assay: Competitive inhibition of Mycobacterium tuberculosis RPIB assessed as inhibition constant using D-ribose-5-phosphate as substrate by Cheng-Prusoff equation analysis
Measured Quantity: pKi
Quick note: pKi means taking -log10 of the concentration in moles per liter.

{"columns": ["Compound", "pKi"],
 "data": [
  ["O=S(=O)(O)CC[C@H]1OC(O)[C@H](O)[C@@H]1O (stereo not given in full)", 3.96],
  ["CC(C(C(=O)O)C(=O)O)[C@@H](O)[C@@H](O)[C@@H](O)CCC(=O)O (stereo not given in full)", 3.54],
  ["O=S(=O)(O)OC[C@H]1OC(O)[C@H](O)[C@@H]1O (stereo not given in full)", 4.40],
  ["CC(C(C(=O)O)C(=O)O)[C@@H](O)[C@@H](O)[C@@H](O)CCP(=O)(O)O (stereo not given in full)", 4.10]
]}

Please look at the following compound next.
Q: Return pKi measured with Ribose-5-phosphate isomerase B (Mycobacterium tuberculosis, UniProt P9WKD7) given this compound: O=C(O)C(C[C@H]1OC(O)[C@H](O)[C@@H]1O)C(=O)O (stereo not given in full)
Ans: 3.47

###

Molecular target: Ribose-5-phosphate isomerase B (Escherichia coli (strain K12))
Test: Competitive inhibition of Escherichia coli RPIB assessed as inhibition constant using D-ribose-5-phosphate as substrate by Cheng-Prusoff equation analysis
Measured Quantity: Ki (µM)
Numeric only. Scale: µM

{"columns": ["Compound", "Assayed Target", "Ki (µM)"],
 "data": [
  ["O=S(=O)(O)CC[C@H]1OC(O)[C@H](O)[C@@H]1O (stereo partly drawn)", "Ribose-5-phosphate isomerase B (Escherichia coli (strain K12))", 170],
  ["O=S(=O)(O)OC[C@H]1OC(O)[C@H](O)[C@@H]1O (stereo partly drawn)", "Ribose-5-phosphate isomerase B (Escherichia coli (strain K12))", 90]
]}

Please look at the following compound next.
Q: If you can, please state the reported Ki value of O=C(O)C(C[C@H]1OC(O)[C@H](O)[C@@H]1O)C(=O)O (stereo partly drawn) .
Ans: 670

###

Assay: Stability in Tris-HCl buffer spiked with alkaline phosphatase incubated for 24 hrs
Type: physicochemical
Measured Quantity: Stability

{"columns": ["Molecule", "Measured Quantity", "Recorded Value"],
 "data": [
  ["O=S(=O)(O)OC[C@H]1OC(O)[C@H](O)[C@@H]1O (stereo partly drawn)", "Stability", "Stable"],
  ["O=P(O)(O)OC[C@H]1O[C@@H](O)[C@H](O)[C@@H]1O", "Stability", "Unstable"],
  ["CC(C(C(=O)O)C(=O)O)[C@@H](O)[C@@H](O)[C@@H](O)CCP(=O)(O)O (stereo partly drawn)", "Stability", "Stable"],
  ["O=C(O)[C@@H](O)[C@@H](O)[C@@H](O)COP(=O)(O)O (single isomer, unassigned)", "Stability", "Unstable"],
  ["CC(C(C(=O)O)C(=O)O)[C@@H](O)[C@@H](O)[C@@H](O)CCC(=O)O (stereo partly drawn)", "Stability", "Stable"],
  ["O=C(O)C(C[C@H]1OC(O)[C@H](O)[C@@H]1O)C(=O)O (stereo partly drawn)", "Stability", "Stable"]
]}

Q: If you can, please state the reported Stability value of O=P(O)(O)CC[C@H]1OC(O)[C@H](O)[C@@H]1O (stereo partly drawn) .
Ans: Stable

Q: If you can, please state the reported Stability value of O=S(=O)(O)CC[C@H]1OC(O)[C@H](O)[C@@H]1O (stereo partly drawn) .
Ans: Stable

###

For ribose-5-phosphate isomerase (Spinacia oleracea, UniProt Q8RU73), measured pIC50 is reported for the entries below.
Quick note: pIC50 means taking -log10 of the concentration in moles per liter.

{"columns": ["Compound", "Assayed Target", "pIC50"],
 "data": [
  ["O=S(=O)(O)OC[C@H]1OC(O)[C@H](O)[C@@H]1O (some centres not stated)", "ribose-5-phosphate isomerase (Spinacia oleracea, UniProt Q8RU73)", 3.49],
  ["O=C(O)[C@@H](O)[C@@H](O)[C@@H](O)COP(=O)(O)O (single isomer, unassigned)", "ribose-5-phosphate isomerase (Spinacia oleracea, UniProt Q8RU73)", 4.02],
  ["O=S(=O)(O)CC[C@H]1OC(O)[C@H](O)[C@@H]1O (some centres not stated)", "ribose-5-phosphate isomerase (Spinacia oleracea, UniProt Q8RU73)", 3.21]
]}

Q: Return pIC50 measured with ribose-5-phosphate isomerase (Spinacia oleracea, UniProt Q8RU73) given this compound: O=C(O)C(C[C@H]1OC(O)[C@H](O)[C@@H]1O)C(=O)O (some centres not stated)
Ans: 3.01

###

Listing of recorded Ki by entry.
Target: ribose-5-phosphate isomerase (Spinacia oleracea)
Sequence (Q8RU73 whole entry): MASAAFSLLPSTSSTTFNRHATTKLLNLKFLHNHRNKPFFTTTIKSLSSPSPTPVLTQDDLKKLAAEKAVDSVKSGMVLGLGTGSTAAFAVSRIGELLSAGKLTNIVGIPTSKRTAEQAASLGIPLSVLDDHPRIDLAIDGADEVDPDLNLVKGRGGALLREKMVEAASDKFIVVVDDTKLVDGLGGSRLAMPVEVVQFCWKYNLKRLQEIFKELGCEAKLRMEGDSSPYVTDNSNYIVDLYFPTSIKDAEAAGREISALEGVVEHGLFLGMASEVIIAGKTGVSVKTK
Numeric only. Scale: µM

{"columns": ["Compound", "Unit String", "Recorded Value"],
 "data": [
  ["O=C(O)C(C[C@H]1OC(O)[C@H](O)[C@@H]1O)C(=O)O (stereo partly specified)", "µM", 450],
  ["O=S(=O)(O)CC[C@H]1OC(O)[C@H](O)[C@@H]1O (stereo partly specified)", "µM", 290],
  ["O=C(O)[C@@H](O)[C@@H](O)[C@@H](O)COP(=O)(O)O (single isomer, unassigned)", "µM", 38]
]}

Please look at the following compound next.
Q: Return Ki measured with ribose-5-phosphate isomerase (Spinacia oleracea) given this compound: O=S(=O)(O)OC[C@H]1OC(O)[C@H](O)[C@@H]1O (stereo partly specified)
Ans: 180

###

Assay: Stability in Tris-HCl buffer spiked with calf serum incubated for 24 hrs
Assay type: physicochemical, cell-free
Settings: cattle
Measured Quantity: Stability

Recorded Stability, per entry:
{"columns": ["Compound", "Stability"],
 "data": [
  ["O=C(O)C(C[C@H]1OC(O)[C@H](O)[C@@H]1O)C(=O)O (stereo partly drawn)", "Stable"],
  ["O=S(=O)(O)OC[C@H]1OC(O)[C@H](O)[C@@H]1O (stereo partly drawn)", "Unstable"],
  ["O=P(O)(O)CC[C@H]1OC(O)[C@H](O)[C@@H]1O (stereo partly drawn)", "Stable"],
  ["CC(C(C(=O)O)C(=O)O)[C@@H](O)[C@@H](O)[C@@H](O)CCC(=O)O (stereo partly drawn)", "Stable"],
  ["O=C(O)[C@@H](O)[C@@H](O)[C@@H](O)COP(=O)(O)O (single isomer, unassigned)", "Unstable"],
  ["O=P(O)(O)OC[C@H]1O[C@@H](O)[C@H](O)[C@@H]1O", "Unstable"],
  ["O=S(=O)(O)CC[C@H]1OC(O)[C@H](O)[C@@H]1O (stereo partly drawn)", "Stable"]
]}

Please look at the following compound next.
Q: If you can, please state the reported Stability value of CC(C(C(=O)O)C(=O)O)[C@@H](O)[C@@H](O)[C@@H](O)CCP(=O)(O)O (stereo partly drawn) .
Ans: Stable
